pIC50: −log10 of the molar value.
Each entry below carries its measured pIC50, system: Cruzipain (Trypanosoma cruzi).
Sequence (P25779 whole entry): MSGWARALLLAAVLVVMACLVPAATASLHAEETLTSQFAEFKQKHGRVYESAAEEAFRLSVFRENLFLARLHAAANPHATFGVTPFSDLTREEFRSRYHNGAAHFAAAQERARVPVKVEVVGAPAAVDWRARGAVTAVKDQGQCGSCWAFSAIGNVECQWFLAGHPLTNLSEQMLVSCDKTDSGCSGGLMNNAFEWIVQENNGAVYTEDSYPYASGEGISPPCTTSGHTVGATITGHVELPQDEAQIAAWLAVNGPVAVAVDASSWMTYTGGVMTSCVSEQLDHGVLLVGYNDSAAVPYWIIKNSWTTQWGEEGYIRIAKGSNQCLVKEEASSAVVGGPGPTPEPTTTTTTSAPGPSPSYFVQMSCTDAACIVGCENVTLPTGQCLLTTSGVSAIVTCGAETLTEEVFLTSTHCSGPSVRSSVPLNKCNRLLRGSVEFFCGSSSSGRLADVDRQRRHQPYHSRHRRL
property-measured: pIC50

P = CC(=O)Oc1ccc(C2Oc3cc(OC(C)=O)cc(O)c3C(=O)C2c2c(OC(C)=O)cc(O)c3c(=O)cc(-c4ccc(OC(C)=O)c(OC(C)=O)c4)oc23)cc1 (racemic)
Q = COc1ccc(C2Oc3cc(OC)cc(O)c3C(=O)C2c2c(OC)cc(O)c3c(=O)cc(-c4ccc(OC)c(OC)c4)oc23)cc1 (racemic)
Which value of pIC50 is numerically greater: that of P or that of Q ? Write down the label of the entry you select.
Q

* * *

system: SK-HEP1; test: Cytotoxicity against human SKHEP1 cells assessed as reduction in viability; format: functional, cell-based
property-measured: IC50 (µM)
Quick note: give the figure in µM, leave out the unit.

I am curious: what IC50 value has been reported for `COc1c(O)cc2oc3cc(O)c(CC=C(C)C)c(O)c3c(=O)c2c1CC=C(C)C` ?
19.6

These data points were gathered from ChEMBL document CHEMBL4354794.
